METHOD: self-splicing fitness, log relative to wild type (ln ratio); higher = more splicing; Tetrahymena group I intron in knt gene, E. coli kanamycin selection, DiMSum; sequences stand for … in CUCUCU…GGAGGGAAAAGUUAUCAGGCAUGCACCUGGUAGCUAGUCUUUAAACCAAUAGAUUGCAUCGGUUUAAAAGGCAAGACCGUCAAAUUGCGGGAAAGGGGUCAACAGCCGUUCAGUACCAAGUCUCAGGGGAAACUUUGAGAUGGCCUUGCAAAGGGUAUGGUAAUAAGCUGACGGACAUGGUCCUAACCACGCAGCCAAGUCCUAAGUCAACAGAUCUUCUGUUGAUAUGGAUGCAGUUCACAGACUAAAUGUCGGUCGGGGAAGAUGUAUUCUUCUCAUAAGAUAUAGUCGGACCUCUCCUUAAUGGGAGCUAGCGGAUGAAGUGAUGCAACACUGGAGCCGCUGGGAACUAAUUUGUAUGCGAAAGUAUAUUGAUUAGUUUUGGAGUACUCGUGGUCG;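 note: selection with 25 µg/mL kanamycin versus none on LB agar overnight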
CONDITION PARAMETERS: 37 °C
Assign satisfied to entries whose self-splicing fitness (ln) meets or exceeds -1; assign not satisfied to the rest.

CUAGAGCAAUAUUACGUCCC
not satisfied

Decide: self-splicing fitness (ln) of UUGUAGCAAUAUUACGGUAG >= -1?
satisfied

Confirm if self-splicing fitness (ln) reported for the sequence AGUUAGCAAUAUUACGGUCU is -1 or above.
satisfied

Form field: self-splicing fitness (ln) at least -1? Entry: UACCAGCAAUAUUACGCCUC
satisfied

Exam item: decide whether the reported self-splicing fitness (ln) for CUUCAGCAAUAUUACGCCCC is at least -1.
not satisfied
